# ASSAY_NOTES: Drug uptake in Candida albicans CAF4-2 having ssa2delta mutation cytoplasmic extract assessed per 10^7 cells at 31.5 uM upto 30 mins by SDS-PAGE in presence of 10 mM NaPB
# Format: ADME, Cytoplasm
# MEASUREMENT_PARAMETERS: 0.5 h
OBSERVATION_TYPE: Drug uptake

Data request: Tell me its Drug uptake given H-AKRHHGYKRKFH-OH as the entry.
Data returned: < 0.2 µg

Values compiled from ChEMBL document CHEMBL1255233.
